- System: MS2 coat protein
- protocol: apparent KD of MS2 coat protein; designed switch direction (-1 OFF switch, 1 ON switch): -1; higher = weaker reporter binding
- test-settings: input ligand: FMN 200 uM
Documented apparent KD of MS2 coat protein across a set of sequences
Answer in µM, number only, no unit symbol.

Here's what some known entries look like.
CCAUGUAGAGGAUAUCUUAAGCUAGACAUGAGGAUCACCCAUGUGACUAUUCCUAUGAGCGGAGAAGGCUGAACCA [Eternabot (L2) Solution 64] (Eterna round: R97, puzzle: Exclusion 5) = 0.0297
CGUGGCCGGUGAGGAUAUUGAUGACAUGAGGAUCACCCAUGUGUAUCCUCUCGAAAUACCGUGAUCAAGAAGGCAUGGUGCCAC [Ritibe] (Eterna round: R96, puzzle: Exclusion NG 2) = 0.0685

Let us examine a further case.
Query block: Give the reported value of apparent KD of MS2 coat protein for this record: UUUUUAUAUGAAGGAUAUACUUAACAUGAGGAUCACCCAUGUGGUGUUGUGAGUGAGUGAGUUUAGUAGAAGGUCAAUGAUUUC [JMF's solution 64] (Eterna round: R96, puzzle: Exclusion NG 2)
Result block: 0.764

###

Documented apparent KD of K4 kissing-loop reporter across a set of sequences
- Test system: K4 kissing-loop RNA reporter;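 further: bound reporter read as fluorescence of individual clusters on recovered sequencing chips by microscopy, with normalized cluster intensities fitted with a binding model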
- protocol: apparent KD of K4 kissing-loop reporter; higher = weaker reporter binding
- test-settings: Eterna round: R107; input ligand: tryptophan 2.4 mM
Answer in nM, number only, no unit symbol.

UUACCAAGUGAUGUUUGGAAAUAUCCUAGGCAGGAUAUGCGGAAACGCAGAAGGGCCACCUUCUAGUGAAGGAAACUUCGCUAUU [Ex FMN A 3] = 263
GUUACGCAUGGAAGGAGCGCGAAUUUAAUUAGUGAGUGAUGUUCACAUAAAAUAUAUAAUACGCAGGUAGGUCGCCAUGUGUAAC [Ex Arginine B K4 1] = 75

Query block: Give the reported value of apparent KD of K4 kissing-loop reporter for this record: UAACUCUUGCAGUGAUGUUGCAAGUAUGCUCAGGAUAUCAGGAAACUGAGAAGGGAGUUUCCUGAGCUUCUGCAAGAGCUCAGAA [KL-SSFMN-A6]
Result block: 382

###

- Test system: MS2 coat protein
- protocol: apparent KD of MS2 coat protein; designed switch direction (-1 OFF switch, 1 ON switch): 1; higher = weaker reporter binding
- test-settings: input ligand: FMN 200 uM
Documented apparent KD of MS2 coat protein across a set of sequences
Answer in nM, number only, no unit symbol.

AUUAUUAAUGCAGGAUAUGAUUAACAUGAGGAUCACCCAUGUGGUGUUGUGAGUAAGGAGAGUGAUCAGAAGGGCAUUUUUUUG [JMF's solution 19] (Eterna round: R96, puzzle: Same State NG 2) = 420

Query block: Give the reported value of apparent KD of MS2 coat protein for this record: UGUACCUUCACAGGAUAUCAUGCGAAAAUUGCGUGAGAAGGGUGAAUACUGUCUUUCUAAGAGCACAUGAGGAUCACCCAUGUA [SameState NG1 #59] (Eterna round: R96, puzzle: Same State NG 1)
Result block: 195

Query block: Give the reported value of apparent KD of MS2 coat protein for this record: GGAGCCAAGGCAGGAUAUUCAUAUUAAAACAUGAGGAUCACCCAUGUAAAGGCCAGAAGGCCUUUGGAGAAGGGCCAUGGCUCG [Xeonanis - 13 mod14] (Eterna round: R96, puzzle: Same State NG 2)
Result block: 17.7

Query block: Give the reported value of apparent KD of MS2 coat protein for this record: GUAAUAAUGUAAGGAUAUACAUGAGGAUUUCUCGUAGAAGGUACAAGACAUGAGGAUCACCCAUGUGUCGCUCCGUAGAGCGUA [Mat - Same State NG 1 - JL mod - D15] (Eterna round: R96, puzzle: Same State NG 1)
Result block: 297

###

- Test system: MS2 coat protein
- protocol: apparent KD of MS2 coat protein; designed switch direction (-1 OFF switch, 1 ON switch): -1; higher = weaker reporter binding
- test-settings: input ligand: none
property: apparent KD of MS2 coat protein (nM)
Answer in nM, number only, no unit symbol.

Here's what some known entries look like.
CCCAGUUAGGAAGGAUAUUGUACAUGAGGAUCACCCAUGUAAUAAAUGAGGAUCACGGAUGUAGACAAGAAGGUCCGGAUAGGC [Ostracism 8 - Jieux - Exclusion NG 2] (Eterna round: R96, puzzle: Exclusion NG 2) = 55.5
ACCGAUGUGCAAGGAUAUGACAUGAGGAUCACCCAUGUCAAAACAAGAAGAACGGGUGUGCCUCCUUAGAAGGUGCACAAACGA [Eternabot solution 2] (Eterna round: R96, puzzle: Exclusion NG 2) = 24
AGCUGUGGCCGAGGAUAUCACGAACCAUGGAAAACCAUGGAAACUCUACAUGAGGAUCACCCAUGUGAGAAGGCGGUCUCAGCA [Eli eng2 - 022] (Eterna round: R96, puzzle: Exclusion NG 2) = 35.2
AAACUGUGAGGAUAUGCACGGGCCCUCUUAAUAAAACCAAAACAUGAGGAUCACCCAUGUAGAAGGCACACAUA [EX2 A.24] (Eterna round: R97, puzzle: Exclusion 2) = 543
CGUGGCCGGUGAGGAUAUUGAUGACAUGAGGAUCACCCAUGUGUAUCCUCUCGAAAUACCGUGAUCAAGAAGGCAUGGUGCCAC [Ritibe] (Eterna round: R96, puzzle: Exclusion NG 2) = 14

Let us examine a further case.
Query block: Give the reported value of apparent KD of MS2 coat protein for this record: AUUGGACACUCAGGAUAUCAGGUUCUAUACAUGAGGAUCACCCAUGUGGGCGAACCCAUGAUAGCUGAGAAGGGAGUAAUCCUA [Orxete] (Eterna round: R96, puzzle: Exclusion NG 2)
Result block: 19.4

###

Documented apparent KD of MS2 coat protein across a set of sequences
- Tested on: MS2 coat protein
- protocol: apparent KD of MS2 coat protein; higher = weaker reporter binding
- test-settings: Eterna round: R107; input ligand: arginine 13.2 mM
Answer in nM, number only, no unit symbol.

GAGUAGAGGACGGCCGCCACUAAACAUGAGGAUCACCCAUGUCGUGAUCCGUUACCUAGGGUAGAUAGGACCGGGUCAUGUAGUC [Exclusion Tryptophan B GF 17] = 47.7
AACAUGAGGAUCACCCAUGUUGUAAGGGAAGGAGCGCCUAAUCAGGCAGGUAGGUCGCCCAACAUGAGGAUCACCCAUGUUGUAU [Exclusion Arginine A 2] = 38.9
AGACAUGAGGAUCACCCAUGUAGUAUGGAUACCAGAUCCAGAUUUAUCCCUUGGCAGCUGUGGUACAGCGAUGGAUUGCUCCUAG [Exclusion - Theophylline A (Freestyle 10)] = 33.5
AGCUCGCAUCCUCAAGCGUCAAAGACGCGUCGAGGACCGGUACGGCCGCCACUCGACAAGAGGAUCACCCUUGUCUAAGCGAGCA [TrypAX 4 #SwitchBubble #AlternativeMS2 #MS2Late #CuTurnoff] = 73.3
UUCAGCUAGUCGGCCGCCACUACCUGAGGAUCACCCUGGUAGGUCCACACUGCUUCGGCAGUGAGUAGGACCGGGACUAGCUGAG = 18.3

Query block: Give the reported value of apparent KD of MS2 coat protein for this record: AGCUCGCAUCCUCAAAGCGUCAAAGACGCACGAGGACCGGUACGGCCGCCACUCGACCUGAGGAUCACCCUGGUCUAAGCGAGCA [TrypAX 9 #SwitchBubble #AlternativeMS2 #MS2Late #CuTurnoff]
Result block: 29.7

Query block: Give the reported value of apparent KD of MS2 coat protein for this record: GUUAUAUCAAAAGAUGUAACAGUGGGUGAACGAGGACCGGUACGGCCGCCACUCGGACAUGAGGAUCACCCAUGUCCAUGUGAAA [AstrosExyTryA#14]
Result block: 15.8

###

- Tested on: MS2 coat protein
- protocol: apparent KD of MS2 coat protein; designed switch direction (-1 OFF switch, 1 ON switch): -1; higher = weaker reporter binding
- test-settings: Eterna round: R95; input ligand: microRNA oligo, concentration not stated
Documented apparent KD of MS2 coat protein across a set of sequences
Answer in nM, number only, no unit symbol.

Here's what some known entries look like.
AGUAACUAUCACGAAAGUGAUAGUUACAAAACAAGUGAAACAUGAGGAUCACCCAUGUCCUCACUUGCUCGUCUUAU [Sensor 3 - 5] (puzzle: Sensor v3, turn-off variant 2) = 128
UAUUAAUGCAAGGAUAUGCUUUUAAUUUUUUUUGCAGAAGGUGCAACAUGAGGAUCACCCAUGUUUCAGGGUAU [JR_E6_Sub031] (puzzle: Exclusion 6) = 35.1

Query block: Give the reported value of apparent KD of MS2 coat protein for this record: AGUAACAGAGGAUAUACUGUUUUAUGUAUUUAUUAUUUUAAACAUGAGGAUCACCCAUGUAGAAGGCUGAAUAA [JMF 81] (puzzle: Exclusion 2)
Result block: 17.5

Query block: Give the reported value of apparent KD of MS2 coat protein for this record: AGUACUAACACGAAAGUGUUAGUACUAUAAGCUUGUGAUACAUGAGGAUCACCCAUGUCCUCAUAAGCUCGUCUUAU [Mat - Sensor v3 - Turn-off var 2 - D101] (puzzle: Sensor v3, turn-off variant 2)
Result block: 1820

Query block: Give the reported value of apparent KD of MS2 coat protein for this record: CCCUCAGUCUAGGAUAUAACAAUCAGAUAUCAGUUAGAAGGAGACACAUGAGGAUCACCCAUGUGGGUCAAUAA [Bearener] (puzzle: Exclusion 6)
Result block: 20.2
